Experiment: Inhibitory concentration of compound was determined against disassembly of microtubules
Format: functional
MEASUREMENT_NAME: IC50 (nM)
The reply should contain only the number, in nM.

stdin: Output IC50 of "CC[C@]12CCCn3ccc(c31)-c1ccccc1NC(=O)CC2"
stdout: 2000

----------
Test: Relative activity against the cold-induced disassembly of microtubules with respect to rhazinilam (IC50=2*10e-6M).
Format: functional
Documented Ratio across a set of compounds
Give a plain numeric answer without units written out.

stdin: Output Ratio of "CC[C@]12CCCn3c(C(=O)C(F)(F)F)cc(c31)-c1ccccc1NC(=O)CC2"
stdout: 4

stdin: Output Ratio of "CC[C@]12CCCn3c(C(=O)OC)cc(c31)-c1ccccc1NC(=O)CC2"
stdout: 5
